Entries and their relative viability
system: 621-102 (TSC2-deficient); assay: relative viability vs DMSO; higher = less cytotoxic; conditions: 0.001 µM; serum: 10% FBS; 72 h
Where a name gives a salt, the structure may show the parent alone.
quantityKind: relative viability (%)

INSERT INTO measurements (compound, studytarget, valuemeasured) VALUES
  ('CC[C@@]1(O)C(=O)OCc2c1cc1n(c2=O)Cc2cc3ccccc3nc2-1', '621-102 (TSC2-deficient)', 106),
  ('C[C@H](Cn1cnc2c(N)ncnc21)OCP(=O)(O)O', '621-102 (TSC2-deficient)', 73.2),
  ('C=CC(=O)Nc1cccc(Oc2nc(Nc3ccc(N4CCN(C)CC4)cc3)ncc2Cl)c1', '621-102 (TSC2-deficient)', 110),
  ('O=C(/C=C/c1cccc(S(=O)(=O)Nc2ccccc2)c1)NO', '621-102 (TSC2-deficient)', 111),
  ('COc1ccccc1N1CCN(CCN(C(=O)C2CCCCC2)c2ccccn2)CC1', '621-102 (TSC2-deficient)', 102),
  ('O=C(CN1C(=O)C2(CCCC2)NC[C@H]1c1cc(F)cc(F)c1)Nc1ccc2c(c1)C[C@@]1(C2)C(=O)Nc2ncccc21 [MK 3207 hydrochloride]', '621-102 (TSC2-deficient)', 114),
  ('C[C@@H]1CN(CC(=O)Nc2ccc3c(c2)Cc2cccc(-c4cc(=O)cc(N5CCOCC5)o4)c2S3)C[C@H](C)O1', '621-102 (TSC2-deficient)', 96.3),
  ('c1ccc2c(-c3cnn4cc(-c5ccc(N6CCNCC6)cc5)cnc34)ccnc2c1', '621-102 (TSC2-deficient)', 95.1),
  ('CC(C)C(=O)Oc1ccc(CO)cc1[C@H](CCN(C(C)C)C(C)C)c1ccccc1 [Fesoterodine fumarate (Toviaz)]', '621-102 (TSC2-deficient)', 101),
  ('C=CC(=O)N1CCC[C@@H](n2nc(-c3ccc(Oc4ccccc4)cc3)c3c(N)ncnc32)C1', '621-102 (TSC2-deficient)', 99.6),
  ('CN1CCN(c2c(F)cc3c(=O)c(C(=O)O)cn(CCF)c3c2F)CC1', '621-102 (TSC2-deficient)', 111),
  ('COc1cc2nccc(Oc3ccc(NC(=O)C4(C(=O)Nc5ccc(F)cc5)CC4)cc3)c2cc1OC', '621-102 (TSC2-deficient)', 97.1),
  ('CN(C)CC[C@H](CSc1ccccc1)Nc1ccc(S(=O)(=O)NC(=O)c2ccc(N3CCN(Cc4ccccc4-c4ccc(Cl)cc4)CC3)cc2)cc1[N+](=O)[O-]', '621-102 (TSC2-deficient)', 118),
  ('CCCCN1CCCCC1C(=O)Nc1c(C)cccc1C (stereo unspecified) [Bupivacaine HCl (marcain)]', '621-102 (TSC2-deficient)', 104),
  ('CS(=O)(=O)CCNCc1ccc(-c2ccc3ncnc(Nc4ccc(OCc5cccc(F)c5)c(Cl)c4)c3c2)o1 [Lapatinib Ditosylate]', '621-102 (TSC2-deficient)', 100),
  ('CC(C)c1cnn2c(NCc3ccccc3)cc(NCCCCCCN)nc12', '621-102 (TSC2-deficient)', 107),
  ('O=C1N=C(O)NC1(c1ccccc1)c1ccccc1 [Phenytoin sodium]', '621-102 (TSC2-deficient)', 90.6),
  ('COc1ccc(-c2ccc3c(N4CCOCC4)nc(N4C[C@@H](C)O[C@@H](C)C4)nc3n2)cc1CO', '621-102 (TSC2-deficient)', 78),
  ('Nc1cc(C(Cl)=C(Cl)Cl)c(S(N)(=O)=O)cc1S(N)(=O)=O', '621-102 (TSC2-deficient)', 112),
  ('CC[C@H](c1ccc(O)cc1)[C@@H](CC)c1ccc(O)cc1', '621-102 (TSC2-deficient)', 121),
  ('Cn1c(=O)c(F)c(Nc2ccc(I)cc2F)c2c(=O)n(C[C@@H](O)CO)cnc21', '621-102 (TSC2-deficient)', 107),
  ('COc1cc2c(Nc3ccc(NC(=O)c4ccccc4)cc3)ncnc2cc1OCCCN1CCOCC1', '621-102 (TSC2-deficient)', 92),
  ('Cn1c(CNc2ccc(C(=N)N)cc2)nc2cc(C(=O)N(CCC(=O)O)c3ccccn3)ccc21', '621-102 (TSC2-deficient)', 77.2),
  ('Cc1ccc(NC(=O)c2ccc(CN3CCN(C)CC3)cc2)cc1Nc1nccc(-c2cccnc2)n1 [Imatinib (STI571)]', '621-102 (TSC2-deficient)', 107),
  ('CCC1=C[C@@H]2CN(C1)Cc1c([nH]c3ccccc13)[C@@](C(=O)OC)(c1cc3c(cc1OC)N(C)[C@H]1[C@@](O)(C(=O)OC)[C@H](OC(C)=O)[C@]4(CC)C=CCN5CC[C@@]31[C@H]54)C2', '621-102 (TSC2-deficient)', 41.4),
  ('OCCn1cc(-c2cnc3nnn(Cc4ccc5ncccc5c4)c3n2)cn1', '621-102 (TSC2-deficient)', 98.7),
  ('C[N+]1(C)[C@@H]2C[C@@H](OC(=O)C(O)(c3cccs3)c3cccs3)C[C@H]1[C@@H]1O[C@@H]12', '621-102 (TSC2-deficient)', 114),
  ('NC(=O)[C@@H](CCC(F)(F)F)N(Cc1ccc(-c2ncon2)cc1F)S(=O)(=O)c1ccc(Cl)cc1', '621-102 (TSC2-deficient)', 108),
  ('CN(C)C(=O)C(CCN1CCC(O)(c2ccc(Cl)cc2)CC1)(c1ccccc1)c1ccccc1 [Loperamide HCl]', '621-102 (TSC2-deficient)', 107),
  ('Cc1c(C(=O)Nc2ccc(N3C[C@@H](C)O[C@@H](C)C3)nc2)cccc1-c1ccc(OC(F)(F)F)cc1', '621-102 (TSC2-deficient)', 106),
  ('CNC(=O)c1cc(Oc2ccc(NC(=O)Nc3ccc(Cl)c(C(F)(F)F)c3)c(F)c2)ccn1 [BAY 73-4506 (Regorafenib)]', '621-102 (TSC2-deficient)', 93.9);

* * *

system: 621-102 (TSC2-deficient); test: relative viability vs DMSO; higher = less cytotoxic; conditions: 0.001 µM; serum: 10% FBS; 72 h;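 note: immortalized renal angiomyolipoma cells stably carrying empty vector or TSC2, dosed in 384-well plates in DMEM, viability normalized to vehicle-treated wells within each plate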
Counter-ions that a name gives are not always drawn.
quantityKind: relative viability (%)

INSERT INTO assay_data (compound, studytarget, quantitykind, valuemeasured) VALUES
  ('Nc1ccccc1NC(=O)c1ccc(CNc2nccc(-c3cccnc3)n2)cc1', '621-102 (TSC2-deficient)', 'relative viability', 101),
  ('COc1nc(C)cnc1NS(=O)(=O)c1cccnc1-c1ccc(-c2nnco2)cc1 [Zibotentan (ZD4054)]', '621-102 (TSC2-deficient)', 'relative viability', 100),
  ('CNC(=O)c1cc(COc2nnc(Nc3ccc(Cl)cc3)c3ccoc23)ccn1', '621-102 (TSC2-deficient)', 'relative viability', 95.1),
  ('COc1ccc(-c2oc3c(CC=C(C)C)c(O[C@@H]4O[C@H](CO)[C@@H](O)[C@H](O)[C@H]4O)cc(O)c3c(=O)c2O[C@@H]2O[C@@H](C)[C@H](O)[C@@H](O)[C@H]2O)cc1', '621-102 (TSC2-deficient)', 'relative viability', 92.7),
  ('Cc1[nH]nc2ccc(-c3cncc(OC[C@@H](N)Cc4ccccc4)c3)cc12', '621-102 (TSC2-deficient)', 'relative viability', 108),
  ('Cc1c(NC(=O)OC[C@@H]2COCCN2)cn2ncnc(Nc3ccc4c(cnn4Cc4cccc(F)c4)c3)c12', '621-102 (TSC2-deficient)', 'relative viability', 104),
  ('C#CCN(C)[C@H](C)Cc1ccccc1 [Selegiline HCl]', '621-102 (TSC2-deficient)', 'relative viability', 80.4),
  ('O=c1oc2cc(O)ccc2s1', '621-102 (TSC2-deficient)', 'relative viability', 106),
  ('Nc1cc(C(F)(F)F)c(-c2cc(N3CCOCC3)nc(N3CCOCC3)n2)cn1', '621-102 (TSC2-deficient)', 'relative viability', 102),
  ('CCOC(=O)[C@H](CCc1ccccc1)N[C@@H](C)C(=O)N1CCC[C@H]1C(=O)O [Enalapril Maleate]', '621-102 (TSC2-deficient)', 'relative viability', 92.6),
  ('C/C(=C\c1csc(C)n1)[C@@H]1C[C@@H]2O[C@]2(C)CCC[C@H](C)[C@H](O)[C@@H](C)C(=O)C(C)(C)[C@@H](O)CC(=O)O1 [Epothilone B (EPIO906)]', '621-102 (TSC2-deficient)', 'relative viability', 29.3),
  ('CN1[C@@H]2CC[C@H]1C[C@@H](OC(=O)C(CO)c1ccccc1)C2 (stereo partly drawn) [Atropine sulfate monohydrate]', '621-102 (TSC2-deficient)', 'relative viability', 79),
  ('COC(=O)Nc1ccc(-c2nc(N3CCOCC3)c3cnn(C4CCN(C(=O)OC)CC4)c3n2)cc1', '621-102 (TSC2-deficient)', 'relative viability', 84.2),
  ('C[C@]1(c2nc3c(C(N)=O)cccc3[nH]2)CCCN1', '621-102 (TSC2-deficient)', 'relative viability', 118),
  ('Cn1cncc1[C@@](N)(c1ccc(Cl)cc1)c1ccc2c(c1)c(-c1cccc(Cl)c1)cc(=O)n2C', '621-102 (TSC2-deficient)', 'relative viability', 117),
  ('CC(C)[C@H](C(=O)Nc1ccc(C(=O)NO)cc1)c1ccccc1', '621-102 (TSC2-deficient)', 'relative viability', 109),
  ('COc1ccccc1N1CCN(CCN2C(=O)CC3(CCCC3)CC2=O)CC1', '621-102 (TSC2-deficient)', 'relative viability', 110),
  ('CCN1CCCC1CNC(=O)c1cc(S(=O)(=O)CC)c(N)cc1OC (stereo not drawn) [Amisulpride]', '621-102 (TSC2-deficient)', 'relative viability', 100),
  ('O=C(O)Cc1cccc(OCCCN(Cc2cccc(C(F)(F)F)c2Cl)CC(c2ccccc2)c2ccccc2)c1', '621-102 (TSC2-deficient)', 'relative viability', 88.7),
  ('CC(C[N+](C)(C)C)OC(N)=O (stereo not drawn) [Bethanechol chloride]', '621-102 (TSC2-deficient)', 'relative viability', 105),
  ('CN(C)CC/C=C1/c2ccccc2COc2ccc(CC(=O)O)cc21 [Olopatadine HCl (Opatano)]', '621-102 (TSC2-deficient)', 'relative viability', 114),
  ('CN(C/C=C/C#CC(C)(C)C)Cc1cccc2ccccc12 [Terbinafine HCl]', '621-102 (TSC2-deficient)', 'relative viability', 97),
  ('CCS(=O)(=O)Nc1ccc2c(c1)/C(=C(/Nc1ccc(CN3CCCCC3)cc1)c1ccccc1)C(=O)N2', '621-102 (TSC2-deficient)', 'relative viability', 95.5),
  ('CN1CCC(CNc2ccc3ncc(-c4cccc(OC(F)(F)F)c4)n3n2)CC1', '621-102 (TSC2-deficient)', 'relative viability', 110),
  ('CS(=O)(=O)N1CCN(Cc2cc3nc(-c4cccc5[nH]ncc45)nc(N4CCOCC4)c3s2)CC1', '621-102 (TSC2-deficient)', 'relative viability', 114),
  ('Oc1cccc(-c2nc(N3CCOCC3)c3oc4ncccc4c3n2)c1', '621-102 (TSC2-deficient)', 'relative viability', 92.1),
  ('COc1ccc(-c2ccc3c(N4CCOC[C@@H]4C)nc(N4CCOC[C@@H]4C)nc3n2)cc1CO', '621-102 (TSC2-deficient)', 'relative viability', 86.2),
  ('CC(C)CC(=O)Nc1n[nH]c2c1CN(C(=O)C1CCN(C)CC1)C2(C)C', '621-102 (TSC2-deficient)', 'relative viability', 109);
